Source listed as patent US9290490B2.

ASSAYED_TARGET: recombinant human GST-Syk (Homo sapiens (Human), UniProt P43405)
EXPERIMENTAL_DETAILS: Homogeneous Time-Resolved Fluorescence (HTRF) Assay for the Recombinant Human Syk Enzyme
Format: biochemical
MEASUREMENT_PARAMETERS: recombinant human GST-Syk 5 pM, ATP 25 μM; read-out: rhSyk Activity (IC50)
pIC50: −log10 of the molar value. Where a name gives a salt, the structure may show the parent alone.

| COMPOUND | pIC50 |
| --- | --- |
| Cc1cc(Nc2nccc(C(F)(F)F)n2)cc(-c2cnc(C(=O)C3CCC(=O)CC3(C)C)s2)c1 (racemic) [Example 11, trifluoroacetate] | 6.00 to 7.00 |
| Cc1cc(Nc2nccc(C(F)(F)F)n2)cc(-c2cnc(C(C)(O)C3CCC(C)(O)CC3)s2)c1 (stereo not shown) | ≥ 7.00 |
| Cc1cc(Nc2ncc(F)c(C)n2)cc(-c2cnc(C(O)(CO)C3CCC(C(=O)O)CC3)s2)c1 (stereo not shown) | ≥ 7.00 |
| Cc1cc(Nc2nccc(C(F)(F)F)n2)cc(-c2cnc([C@@](O)(C3CC3)[C@H]3CC[C@H](C(=O)O)CC3)s2)c1 (single isomer, unassigned) [Example 2 (from Intermediate 28 slower eluting enantiomer)] | ≥ 7.00 |
| CCCCC(=O)OC1CCC(C(C)(O)c2ncc(-c3cc(C)cc(Nc4nccc(C(F)(F)F)n4)c3)s2)CC1 (stereo not shown) | 5.00 to 6.00 |
| Cc1cc(Nc2nccc(C(F)F)n2)cc(-c2cnc(C(C)(O)[C@H]3CC[C@H](C(=O)O)CC3)s2)c1 (single isomer, unassigned) | ≥ 7.00 |
| Cc1cc(Nc2nccc(C(F)(F)F)n2)cc(-c2cnc(C(C)(O)C3CCC(C(=O)O)C3)s2)c1 (stereo not shown) [Example 3-3] | ≥ 7.00 |
| C[C@](O)(c1ncc(-c2cc(CO)cc(Nc3nccc(C(F)(F)F)n3)c2)s1)[C@H]1CC[C@H](C(=O)O)CC1 (single isomer, unassigned) | ≥ 7.00 |
| Cc1cc(Nc2nccc(C(F)(F)F)n2)cc(-c2cnc(C(C)(O)C3CCC(C)(C(=O)O)CC3)s2)c1 (stereo not shown) [Example 3-6] | ≥ 7.00 |
| Cc1cc(Nc2nccc(C)n2)cc(-c2cnc(C(O)(C3CCC(C(=O)O)CC3)C(F)(F)F)s2)c1 (stereo not shown) | ≥ 7.00 |
| COC(=O)[C@@H]1CC(C(=O)c2ncc(-c3cc(C)cc(Nc4nccc(C(F)(F)F)n4)c3)s2)[C@H](O)C1(C)C (stereo partly shown) | 6.00 to 7.00 |
| Cc1cc(Nc2ncc(Cl)c(C)n2)cc(-c2cnc(C(C)(O)C3CCC(C(=O)O)CC3)s2)c1 (stereo not shown) | ≥ 7.00 |
| Cc1ccnc(Nc2cc(C)c(Br)c(-c3cnc([C@](C)(O)[C@H]4CC[C@H](C(=O)O)CC4)s3)c2)n1 (single isomer, unassigned) | ≥ 7.00 |
